target: cytochrome bo oxidase (Escherichia coli, UniProt P0ABI8)
Sequence (P0ABI8 whole entry): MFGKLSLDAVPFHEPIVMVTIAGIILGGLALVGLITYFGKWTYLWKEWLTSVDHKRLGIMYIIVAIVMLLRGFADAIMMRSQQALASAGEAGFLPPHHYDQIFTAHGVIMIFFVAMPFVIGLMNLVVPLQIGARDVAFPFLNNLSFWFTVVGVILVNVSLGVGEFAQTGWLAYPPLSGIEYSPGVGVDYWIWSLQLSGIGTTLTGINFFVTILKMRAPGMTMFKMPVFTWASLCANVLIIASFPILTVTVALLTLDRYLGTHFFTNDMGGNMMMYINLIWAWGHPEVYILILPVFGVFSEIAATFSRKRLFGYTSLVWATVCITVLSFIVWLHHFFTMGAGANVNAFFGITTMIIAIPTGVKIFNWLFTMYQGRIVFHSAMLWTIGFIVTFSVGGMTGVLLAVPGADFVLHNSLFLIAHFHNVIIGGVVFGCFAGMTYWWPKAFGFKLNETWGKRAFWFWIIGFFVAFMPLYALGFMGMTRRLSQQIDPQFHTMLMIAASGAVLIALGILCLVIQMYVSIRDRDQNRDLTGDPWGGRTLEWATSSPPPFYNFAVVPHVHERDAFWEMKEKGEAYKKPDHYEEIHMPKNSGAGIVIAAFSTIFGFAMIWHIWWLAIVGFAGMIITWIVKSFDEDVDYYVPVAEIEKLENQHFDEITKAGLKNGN
Sequence (P0ABJ1 25-315 partner): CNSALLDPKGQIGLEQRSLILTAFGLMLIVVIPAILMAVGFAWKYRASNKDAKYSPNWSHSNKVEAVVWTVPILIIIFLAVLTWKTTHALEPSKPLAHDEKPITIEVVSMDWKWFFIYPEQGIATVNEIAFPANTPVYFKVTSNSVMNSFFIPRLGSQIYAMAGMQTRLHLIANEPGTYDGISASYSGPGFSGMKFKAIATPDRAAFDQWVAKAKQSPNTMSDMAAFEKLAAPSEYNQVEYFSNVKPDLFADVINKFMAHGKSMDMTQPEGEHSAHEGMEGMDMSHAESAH
Sequence (P0ABJ3 whole entry partner): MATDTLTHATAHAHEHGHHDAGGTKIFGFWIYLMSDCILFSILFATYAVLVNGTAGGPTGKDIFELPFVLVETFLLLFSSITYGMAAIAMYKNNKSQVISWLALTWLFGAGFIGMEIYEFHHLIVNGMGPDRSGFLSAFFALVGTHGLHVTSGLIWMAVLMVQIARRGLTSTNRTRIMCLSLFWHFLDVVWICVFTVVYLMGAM
Sequence (P0ABJ6 whole entry partner): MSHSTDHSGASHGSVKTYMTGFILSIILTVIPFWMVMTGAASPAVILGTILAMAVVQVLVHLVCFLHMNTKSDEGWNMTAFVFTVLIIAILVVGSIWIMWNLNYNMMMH
pIC50: −log10 of the molar value.
EXPERIMENTAL ENDPOINT: pIC50

# input Lab note: cytochrome bo oxidase (Escherichia coli, UniProt P0ABI8) assay, enter pIC50 for S [hydrogen sulfide] here
# output ~5.30
